Decision: glass transition temperature compared against 100 °C; not below it gives YES, below it gives NO.

{"COMPOUND": "*CCCP(=O)(CCCNC(=O)CCCCC(=O)N*)c1ccccc1 (repeat unit)", "LABEL_VALUE": "NO"}
{"COMPOUND": "*CC(O)COc1ccc(C(C)(C)c2ccc(OCC(O)COc3ccccc3C(=O)Nc3ccc(O*)cc3)cc2)cc1 (repeat unit)", "LABEL_VALUE": "YES"}
{"COMPOUND": "*c1ccc(OCCCCCOc2ccc(N3C(=O)c4ccc(-c5cccc6c5C(=O)N(*)C6=O)cc4C3=O)cc2)cc1 (repeat unit)", "LABEL_VALUE": "YES"}
{"COMPOUND": "*C(=O)NCCN(CCNC(=O)c1cccc(N2C(=O)c3ccc(*)cc3C2=O)c1)c1ccc(/C=C/c2ccc([N+](=O)[O-])cc2)cc1 (repeat unit)", "LABEL_VALUE": "YES"}
{"COMPOUND": "*C(=O)c1ccc2c(c1)C(=O)N(c1cccc(C(=O)c3ccc(Cc4ccc(C(=O)c5cccc(N6C(=O)c7ccc(*)cc7C6=O)c5)cc4)cc3)c1)C2=O (repeat unit)", "LABEL_VALUE": "YES"}
{"COMPOUND": "*CCCCCC(*)CCCCCCCCCC (repeat unit)", "LABEL_VALUE": "NO"}
{"COMPOUND": "*CC(*)(C)C(=O)OCCn1c2ccccc2c2cc(/N=N/c3ccc([N+](=O)[O-])cc3)ccc21 (repeat unit)", "LABEL_VALUE": "YES"}
{"COMPOUND": "*Nc1ccc(C(=O)c2c(C)c(C)c(C(=O)c3ccc(NC(=O)c4ccc(C(*)=O)cc4)cc3)c(C)c2C)cc1 (repeat unit)", "LABEL_VALUE": "YES"}
{"COMPOUND": "*CCCCCCN1C(=O)c2ccc(C(=O)Oc3ccc(-c4ccc(OC(=O)c5ccc6c(c5)C(=O)N(*)C6=O)cc4)cc3)cc2C1=O (repeat unit)", "LABEL_VALUE": "YES"}
{"COMPOUND": "*Oc1ccc(NC(=O)c2cc(-c3ccc(C(=O)OCC)c(C(=O)Nc4ccc(*)cc4)c3)ccc2C(=O)OCC)cc1 (repeat unit)", "LABEL_VALUE": "YES"}
{"COMPOUND": "*CCCCC(=O)Oc1ccc(OC(=O)c2ccc3c(c2)C(=O)N(*)C3=O)cc1 (repeat unit)", "LABEL_VALUE": "NO"}
{"COMPOUND": "*/C(C#N)=C/c1cc(/C=C(\\C#N)c2ccc3c(c2)C(CCCCCCCC)(CCCCCCCC)c2cc(*)ccc2-3)cc(N(c2ccccc2)c2ccccc2)c1 (repeat unit)", "LABEL_VALUE": "YES"}
{"COMPOUND": "*CCCCCCCCCCCCC(=O)N* (repeat unit)", "LABEL_VALUE": "NO"}
{"COMPOUND": "*Oc1ccc(Oc2ccc(C(=O)c3ccc(*)cc3)cc2)cc1-c1cccc(C(F)(F)F)c1 (repeat unit)", "LABEL_VALUE": "YES"}
{"COMPOUND": "*CC(*)(CC(=O)Oc1ccc(OC)cc1)C(=O)Oc1ccc(OC)cc1 (repeat unit)", "LABEL_VALUE": "YES"}
